- Tested on: JJN-3 (NIK translocated) multiple myeloma cells
- PROTOCOL_DESCRIPTION: Antiproliferative activity on JJN-3 multiple myeloma cells (CellTiter-Glo, 96 hr), Biological Assay C
- Type: cell-based, human
- RUN_PARAMETERS: Homo sapiens, JJN-3, 96 h, JJN-3 (NIK translocated) cells, averaged values, read-out: JJN-3 Proliferation inhibition (IC50 (nM))
TEST_READOUT: IC50 (nM)
# value in nM; strip the unit string

COc1cc(C(=O)NCC(C)O)c(Cl)cc1Nc1nccc(-c2cc(C#N)c3c(c2)C(C)(C)CN3)n1 (stereo not shown) | 20
C[C@]1(CO)CNc2c(C#N)cc(-c3ccnc(Nc4cc(C#N)ccc4CO)n3)cc21 | 240
COCCCc1ccc(C#N)cc1Nc1nccc(-c2cc(C#N)c3c(c2)[C@@](C)(CO)CN3)n1 | 182
COc1cc(C(=O)NC2CCOCC2)ccc1Nc1nccc(-c2cc(C#N)c3c(c2)C(C)(CO)CN3)n1 (stereo not shown) | 51
COc1cc(CO)c(Cl)cc1Nc1nccc(-c2cc(C#N)c3c(c2)C(C)(CO)CN3)n1 (stereo not shown) | 13
CC(C)Oc1ccc(C#N)cc1Nc1nccc(-c2cc(C#N)c3c(c2)[C@@](C)(CO)CN3)n1 | 258

Any idea what IC50 was measured for COCCOc1ccc(C#N)cc1Nc1nccc(-c2cc(C#N)c3c(c2)[C@@](C)(COC(C)=O)CN3)n1 ?
570

Form field: reported IC50 of Cc1c(Nc2nccc(-c3cc(C#N)c4c(c3)[C@@](C)(CO)CN4)n2)cccc1C(=O)N1CCN(C2COC2)CC1
66

For CC(=O)OC[C@@]1(C)CNc2c(C#N)cc(-c3ccnc(Nc4cc(C#N)ccc4OCC4CC4)n3)cc21 , what is its reported IC50?
407

# query: IC50 of entry CCS(=O)(=O)N(C)c1cccc(Nc2nccc(-c3cc(C#N)c4c(c3)C(C)(CO)CN4)n2)c1 (stereo not shown)
44

What IC50 value was documented for this molecule, C[C@]1(CO)CNc2c(C#N)cc(-c3ccnc(Nc4cc(C#N)ccc4CNC4CC4)n3)cc21 ?
195

Which IC50 is reported for this molecule? C[C@]1(CO)CNc2c(C#N)cc(-c3ccnc(Nc4cc(C#N)ccc4C4CC4)n3)cc21
148

What IC50 value was documented for this molecule, Cc1ccc(C#N)cc1Nc1nccc(-c2cc(C#N)c3c(c2)[C@@](C)(COC(=O)CN2CCOCC2)CN3)n1 ?
78

For Cc1cc(CCN2CCOCC2)c(C#N)cc1Nc1nccc(-c2cc(C#N)c3c(c2)[C@@](C)(CO)CN3)n1 , what is its reported IC50?
29

Requested read-out: IC50. Entry: C[C@]1(CO)CNc2c(C#N)cc(-c3ccnc(Nc4cc(C#N)ccc4CN4CCOCC4)n3)cc21
3240

Sample CC1(C)CNc2c(C#N)cc(-c3ccnc(Nc4cc(Cl)ccc4OC4CCOCC4)n3)cc21 — what was its IC50?
3720

Need IC50, item Cc1c(Nc2nccc(-c3cc(C#N)c4c(c3)[C@@](C)(CO)CN4)n2)cc(C#N)cc1C(=O)N1CCN(C)CC1
14

For the molecule CNC(=O)c1ccc(C)c(Nc2nccc(-c3cc(C#N)c4c(c3)[C@@](C)(CO)CN4)n2)c1 , what IC50 is on record?
759

* * *

- MEASURED_ON: recombinant human NF-kappaB-inducing kinase (NIK/MAP3K14) (Homo sapiens)
- Sequence (Q99558 whole entry): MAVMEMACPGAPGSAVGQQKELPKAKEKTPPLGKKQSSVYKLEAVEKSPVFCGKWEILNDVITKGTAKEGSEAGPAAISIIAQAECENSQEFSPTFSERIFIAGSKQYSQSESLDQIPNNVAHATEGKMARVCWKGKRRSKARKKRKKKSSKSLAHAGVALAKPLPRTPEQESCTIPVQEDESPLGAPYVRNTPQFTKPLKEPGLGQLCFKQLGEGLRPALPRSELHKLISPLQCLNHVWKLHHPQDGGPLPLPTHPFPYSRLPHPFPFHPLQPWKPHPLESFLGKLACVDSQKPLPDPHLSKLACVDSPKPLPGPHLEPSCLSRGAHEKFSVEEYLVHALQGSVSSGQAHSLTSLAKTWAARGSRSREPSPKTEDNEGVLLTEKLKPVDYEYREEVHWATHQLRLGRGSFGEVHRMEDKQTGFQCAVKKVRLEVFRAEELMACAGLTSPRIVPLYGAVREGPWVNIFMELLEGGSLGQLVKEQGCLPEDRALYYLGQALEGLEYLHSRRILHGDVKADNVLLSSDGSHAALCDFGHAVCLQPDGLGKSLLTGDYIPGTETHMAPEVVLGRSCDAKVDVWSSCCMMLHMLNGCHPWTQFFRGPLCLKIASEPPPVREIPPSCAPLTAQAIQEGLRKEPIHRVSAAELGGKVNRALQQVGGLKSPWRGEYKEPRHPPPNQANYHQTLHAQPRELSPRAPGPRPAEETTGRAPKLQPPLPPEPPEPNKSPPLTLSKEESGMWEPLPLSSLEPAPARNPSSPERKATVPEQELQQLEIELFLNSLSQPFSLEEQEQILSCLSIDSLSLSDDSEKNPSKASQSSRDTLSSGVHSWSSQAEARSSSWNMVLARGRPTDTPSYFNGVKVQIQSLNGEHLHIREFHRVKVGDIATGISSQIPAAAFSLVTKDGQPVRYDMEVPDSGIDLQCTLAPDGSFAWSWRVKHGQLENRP
- PROTOCOL_DESCRIPTION: Inhibition of auto-phosphorylation of recombinant human NIK/MAP3K14 activity (AlphaScreen), Biological Assay A
- Assay type: biochemical
- RUN_PARAMETERS: averaged values over all measurements on all batches
The following molecules are listed with their measured IC50 values.
Please give a number only; it is taken to be in nM.

Cc1ccc(C#N)cc1Nc1nccc(-c2cc(C#N)c3c(c2)[C@@](C)(COS(=O)(=O)O)CN3)n1 | 6.5
COc1cc(C(=O)NC2CNCC2O)c(Cl)cc1Nc1nccc(-c2cc(C#N)c3c(c2)C(C)(C)CN3)n1 (mixture of isomers) | 1.6
COCCN1CCN(c2cc(OC)c(Nc3nccc(-c4cc(C#N)c5c(c4)C(C)(C)CN5)n3)cc2Cl)CC1 | 20.9

Please give the measured IC50 for this molecule: C[C@]1(CO)CNc2c(C#N)cc(-c3ccnc(Nc4cc(P(C)(C)=O)ccc4OCC4CC4)n3)cc21
447

Could you share which IC50 value was measured for Cc1ccc(C#N)cc1Nc1nccc(-c2cc(C#N)c3c(c2)[C@@](C)(COC(=O)CN2CCN(C)CC2)CN3)n1 ?
17.4

Suppose we examine the molecule COc1cc(C(=O)N2CC3(CCNCC3)C2)c(Cl)cc1Nc1nccc(-c2cc(C#N)c3c(c2)C(C)(C)CN3)n1 ; what IC50 value has been reported?
2.2

// lookup IC50 for C[C@]1(CO)CNc2c(C#N)cc(-c3ccnc(Nc4cc(C#N)c(F)cc4OC4CC4)n3)cc21
14.5

* * *

- System: JJN-3 (NIK translocated) multiple myeloma cells
- PROTOCOL_DESCRIPTION: Antiproliferative activity on JJN-3 multiple myeloma cells (CellTiter-Glo, 96 hr), Biological Assay C
- Format: cell-based, human
- RUN_PARAMETERS: Homo sapiens, JJN-3, 96 h, JJN-3 (NIK translocated) cells, averaged values, read-out: JJN-3 Proliferation inhibition (IC50 (nM))
TEST_READOUT: IC50 (nM)
Use nM as the unit, but write only the number.

COc1cc(OCCN2CCN(C)CC2)c(Cl)cc1Nc1nccc(-c2cc(C#N)c3c(c2)C(C)(C)CN3)n1 | 129
Cc1ccc(OC2CCN(C)CC2)c(Nc2nccc(-c3cc(C#N)c4c(c3)[C@@](C)(CO)CN4)n2)c1 | 20
COc1cc(N2CCC(O)C2)c(Cl)cc1Nc1nccc(-c2cc(C#N)c3c(c2)C(C)(C)CN3)n1 (centres unmarked) | 59
C[C@]1(CO)CNc2c(C#N)cc(-c3ccnc(Nc4cc(C#N)ccc4OC4CC4)n3)cc21 | 67
COCCOc1ccc(Cl)cc1Nc1nccc(-c2cc(C#N)c3c(c2)C(C)(CO)CN3)n1 (centres unmarked) | 316
COc1cc(N2CCC(N(C)C)CC2)c(Cl)cc1Nc1nccc(-c2cc(C#N)c3c(c2)C(C)(CO)CN3)n1 (centres unmarked) | 7
Cc1ccc(OCCNC2CC2)c(Nc2nccc(-c3cc(C#N)c4c(c3)[C@@](C)(CO)CN4)n2)c1 | 457
CNCCOc1ccc(Cl)cc1Nc1nccc(-c2cc(C#N)c3c(c2)C(C)(CO)CN3)n1 (centres unmarked) | 219

What value of IC50 has been recorded for this entry: C[C@]1(CO)CNc2c(C#N)cc(-c3ccnc(Nc4cc(C#N)ccc4CCN4CC(F)C4)n3)cc21
251

// returns reported IC50 for input COCCCc1ccc(Cl)cc1Nc1nccc(-c2cc(C#N)c3c(c2)[C@@](C)(CO)CN3)n1
123

Which value of IC50 has been reported for CC1(C)CNc2c(C#N)cc(-c3ccnc(Nc4cc(Cl)ccc4OCCO)n3)cc21 in the records?
1020

Record request: IC50 value, item CC1CN(Cc2ccc(Nc3nccc(-c4cc(C#N)c5c(c4)C(C)(CO)CN5)n3)cc2C(F)(F)F)CC(C)N1C (centres unmarked)
9

Requested field: IC50. Item: COc1cc(C(=O)NC2CCC(O)C2)c(Cl)cc1Nc1nccc(-c2cc(C#N)c3c(c2)C(C)(C)CN3)n1 (centres unmarked)
166

* * *

Listed below: melting point values for each entry.
API: value field is a number in °C; no unit string.

Some solved entries appear below for comparison.
C[C@]1(CO)CNc2c(C#N)cc(-c3ccnc(Nc4cc(C#N)ccc4CN4CC(F)(F)C4)n3)cc21 | 223
CC(C)c1ccc(COc2cccc(Nc3nccc(-c4cc(C#N)c5c(c4)C(C)(CO)CN5)n3)c2)cc1 (stereo not drawn) | 183

State the recorded melting point for this entry: [2H]C1([2H])OC([2H])([2H])C([2H])([2H])N(C(=O)c2cccc(Nc3nccc(-c4cc(C#N)c5c(c4)[C@@](C)(CO)CN5)n3)c2C)C1([2H])[2H]
201

// returns reported melting point for input Cc1ccc(C#N)cc1Nc1nccc(-c2cc(C#N)c3c(c2)[C@@](C)(CO)CN3)n1 [Compound 129]
190

Look up melting point: Cc1ccc(C#N)cc1Nc1nccc(-c2cc(C#N)c3c(c2)[C@@](C)(COC(=O)CC(=O)O)CN3)n1 [Compound 142b]
214

Name the reported melting point value associated with the compound CC1(CO)CNc2c(C#N)cc(-c3ccnc(Nc4cc(Cl)ccc4OC(F)(F)F)n3)cc21 (stereo not drawn)
217

* * *

- MEASURED_ON: recombinant human NF-kappaB-inducing kinase (NIK/MAP3K14) (Homo sapiens)
- PROTOCOL_DESCRIPTION: Inhibition of auto-phosphorylation of recombinant human NIK/MAP3K14 activity (AlphaScreen), Biological Assay A
- Format: biochemical
- RUN_PARAMETERS: averaged values over all measurements on all batches
Labelling: IC50 reported below 4 nM becomes y; at or above becomes n.

See these solved cases before continuing.
C[C@]1(CO)CNc2c(C#N)cc(-c3ccnc(Nc4cc(C#N)ccc4CCCCN)n3)cc21 [Compound 184] | y
COc1ccc(C#N)cc1Nc1nccc(-c2cc(C#N)c3c(c2)C(C)(CO)CN3)n1 (stereo not shown) [Compound 31] | n
Cc1cc(C2CCCN(C)C2)c(C#N)cc1Nc1nccc(-c2cc(C#N)c3c(c2)[C@@](C)(CO)CN3)n1 (stereo partly shown) [Compound 177] | y
Cc1ccc(C#N)cc1Nc1nccc(-c2cc(C#N)c3c(c2)[C@@](C)(COC(=O)[C@@H](C)N)CN3)n1 [Compound 141] | n
Cc1ccc(C#N)cc1Nc1nccc(-c2cc(C#N)c3c(c2)[C@](C)(COS(=O)(=O)O)CN3)n1 [Compound 144] | n

Is IC50 strictly under 4 nM for the entry CC(=O)Nc1cc(Cl)cc(Nc2nccc(-c3cc(C#N)c4c(c3)[C@@](C)(CO)CN4)n2)c1C [Compound 63] ?
y
